protocol-text: Tissue distribution test (plasma, liver, kidney, lung)
assay-context: ICR, mouse, in vivo, iv, 5 mg/kg, Liver Kp, liver/plasma concentration ratio, ICR mice, 24 hours
Experimental: (3) Tissue Distribution of Active Ingredient after Administration of Liposome Formulation (Tissue Distribution Test) The compound of the present invention was intravenously administered at a dose of 5 mg/kg to ICR mice. […] Then, the liver, kidney, and lung were removed, and a 25% homogenate was prepared with distilled water. The obtained blood was centrifuged, and plasma was then obtained. Thereafter, each sample was measured using LC/MS/MS. […]
parameter-measured: Kp at 24 h

compound	parameter-measured	measured-result
CCCCCCCCCCNCCN[C@@]1(C)C[C@H](O[C@H]2[C@H](Oc3c4cc5cc3Oc3ccc(cc3Cl)[C@@H](O)[C@@H]3NC(=O)[C@H](NC(=O)[C@@H]5NC(=O)[C@H](CC(N)=O)NC(=O)C(NC(=O)[C@@H](CC(C)C)NC)[C@H](O)c5ccc(c(Cl)c5)O4)c4ccc(O)c(c4)-c4c(cc(O)c(CNCP(=O)(O)O)c4O)[C@@H](C(=O)O)NC3=O)O[C@H](CO)[C@@H](O)[C@@H]2O)O[C@@H](C)[C@H]1O (stereo partly shown)	Kp at 24 h	17.2

###

protocol-text: Tissue distribution test (plasma, liver, kidney, lung)
assay-context: ICR, mouse, in vivo, iv, 5 mg/kg, Plasma Concentration, ICR mice, 2 hours after administration
parameter-measured: concentration at 2 h (ng/mL)

compound	parameter-measured	measured-result
CCCCCCCCCCNCCN[C@@]1(C)C[C@H](O[C@H]2[C@H](Oc3c4cc5cc3Oc3ccc(cc3Cl)[C@@H](O)[C@@H]3NC(=O)[C@H](NC(=O)[C@@H]5NC(=O)[C@H](CC(N)=O)NC(=O)C(NC(=O)[C@@H](CC(C)C)NC)[C@H](O)c5ccc(c(Cl)c5)O4)c4ccc(O)c(c4)-c4c(cc(O)c(CNCP(=O)(O)O)c4O)[C@@H](C(=O)O)NC3=O)O[C@H](CO)[C@@H](O)[C@@H]2O)O[C@@H](C)[C@H]1O (stereo partly shown)	concentration at 2 h	7700

###

protocol-text: Tissue distribution test (plasma, liver, kidney, lung)
assay-context: ICR, mouse, in vivo, iv, 5 mg/kg, Lung Concentration, ICR mice, 0.5 hour after administration

molecule	readout-units	concentration at 0.5 h
CCCCCCCCCCNCCN[C@@]1(C)C[C@H](O[C@H]2[C@H](Oc3c4cc5cc3Oc3ccc(cc3Cl)[C@@H](O)[C@@H]3NC(=O)[C@H](NC(=O)[C@@H]5NC(=O)[C@H](CC(N)=O)NC(=O)C(NC(=O)[C@@H](CC(C)C)NC)[C@H](O)c5ccc(c(Cl)c5)O4)c4ccc(O)c(c4)-c4c(cc(O)c(CNCP(=O)(O)O)c4O)[C@@H](C(=O)O)NC3=O)O[C@H](CO)[C@@H](O)[C@@H]2O)O[C@@H](C)[C@H]1O (stereo partly shown)	ng/mL	5860

###

protocol-text: Tissue distribution test (plasma, liver, kidney, lung)
assay-context: ICR, mouse, in vivo, iv, 5 mg/kg, Kidney Concentration, ICR mice, 24 hours after administration
Method: (3) Tissue Distribution of Active Ingredient after Administration of Liposome Formulation (Tissue Distribution Test) The compound of the present invention was intravenously administered at a dose of 5 mg/kg to ICR mice. […] Then, the liver, kidney, and lung were removed, and a 25% homogenate was prepared with distilled water. The obtained blood was centrifuged, and plasma was then obtained. Thereafter, each sample was measured using LC/MS/MS. […]

compound	concentration at 24 h / ng/mL
CCCCCCCCCCNCCN[C@@]1(C)C[C@H](O[C@H]2[C@H](Oc3c4cc5cc3Oc3ccc(cc3Cl)[C@@H](O)[C@@H]3NC(=O)[C@H](NC(=O)[C@@H]5NC(=O)[C@H](CC(N)=O)NC(=O)C(NC(=O)[C@@H](CC(C)C)NC)[C@H](O)c5ccc(c(Cl)c5)O4)c4ccc(O)c(c4)-c4c(cc(O)c(CNCP(=O)(O)O)c4O)[C@@H](C(=O)O)NC3=O)O[C@H](CO)[C@@H](O)[C@@H]2O)O[C@@H](C)[C@H]1O (stereo partly shown)	5930
